Source listed as PubChem BioAssay (NCI).

// values below are reported TGI
# System: LXFL 529 NSCLC
# Test details: NCI tumour cell line growth inhibition, 48 h

Molecule	Test value
COC1CC(C)C(OC)c2cc(O)cc(c2O)NC(=O)/C(C)=C/C=C\C(C)C(OC(N)=O)/C(C)=C\C(C)C1OC (stereo unspecified)	7.64 µM

Supply measured TGI of Cc1c(-c2coc(-c3ccccc3)n2)c(=O)n(-c2ccccc2)n1C in your reply.
> 100 µM

Supply measured TGI of O=S(=O)(c1ccccc1)c1nccs1 in your reply.
> 100 µM

Supply measured TGI of Brc1c2nc3ccccc3nc2n2ccc3ccccc3c12 in your reply.
> 100 µM

====

# Test system: MOLT-4 leukemia
# Test details: NCI tumour cell line growth inhibition, 48 h; in the data active = GI50 below about 0.43 µM; inactive = the rest
Assign a class; possible classes are TRUE = active, FALSE = inactive

Please review the entries below; each comes with its answer.
> print(dat)
                                   compound  label.value
1  CCN1C(=O)N(CC)C2C1NN=c1s/c(=C\c3cccs3)c(=O)n12 (stereo not given)         TRUE
2  COc1ccc(-c2nsc3c2NC(=O)CC3c2ccc3c(c2)OCCO3)cc1 (stereo not given)        FALSE
3  COc1cccc(Sc2ccc([N+](=O)[O-])c3no[n+]([O-])c23)c1        FALSE
4  O=c1cc(-c2ccccc2)oc2ccc(OC/C(=N/O)c3ccc(F)cc3)cc12        FALSE
5        Cc1ccc2[nH]c3c(c2c1)N=c1ccccc1=NO3        FALSE

Which result was noted for this compound in the test: COc1cccc(OC(=O)c2ccc(C(F)(F)F)nc2Nc2c(C)cccc2Cl)c1
FALSE

====

# System: U251 CNS
Experimental readout: GI50

Past entries and their recorded results:
> print(dat)
                                   compound  study.system  experimental.readout  test.value
1  COc1ccc(-c2nsc3c2NC(=O)CC3c2ccc3c(c2)OCCO3)cc1 (stereo not given)      U251 CNS                  GI50      500 nM
2  CC/C=C\C[C@H](O)C/C=C1/C(=O)C=C[C@@H]1C/C=C\CCCC(=O)OC(C)C      U251 CNS                  GI50      480 nM
3        COc1ccc(C(C#N)=C2C=CC(=NO)C=C2)cc1      U251 CNS                  GI50     6460 nM
4  C=C1C(=O)O[C@H]2[C@H]1CC/C(COC(=O)c1cn(C)c3ccccc13)=C\CC[C@@]1(C)O[C@@H]21      U251 CNS                  GI50     1420 nM

Determine reported GI50 for CCC#CC[C@H](O)C/C=C1/C(=O)C=C[C@@H]1C/C=C\CCCC(=O)OC ; test system: U251 CNS.
695 nM

====

# System: OVCAR-3 ovarian
# Test details: NCI tumour cell line growth inhibition, 48 h
// values below are reported GI50

Supply measured GI50 of O=c1cc(-c2ccccc2)oc2ccc(OC/C(=N/O)c3ccc(F)cc3)cc12 in your reply.
1670 nM

Supply measured GI50 of O=C1CSC(c2ccc(-c3nc4ccccc4[nH]3)cc2)=N1 in your reply.
33800 nM

Supply measured GI50 of O=C(O)/C=C/c1ccc[c]([Sb](=[O])([OH])[OH])c1 in your reply.
> 100000 nM

Supply measured GI50 of C=C(C)[C@@H]1C/C=C(/CO)CC[C@H]2O[C@]2(C)CC/C=C(\C)CC1 in your reply.
22200 nM

Supply measured GI50 of CC(C)=O.O=C([O-])C(F)(F)F.O=C([O-])C(F)(F)F.O=C([O-])C(F)(F)F.O=C([O-])C(F)(F)F.[Rh+2].[Rh+2] in your reply.
> 100000 nM
